System: Escherichia coli TOP10;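 also: peptides expressed intracellularly from a pBAD plasmid library in pooled LB shake-flask culture, induced with 0.3% L-arabinose, DNA abundance read by NGS, three biological replicates, DESeq2 with apeglm shrinkage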
assay overview: shrunken log2 fold change of peptide-encoding DNA abundance (4.5 h post-induction vs induction); higher = less antimicrobial activity (less host growth inhibition)
measurement setup: time post-induction: 4.5 h; library: site-saturation at positions 5, 18, 19, 20
Can you tell me shrunken log2 fold change for the items I'm about to list?
Numbers only.

Worked set:
seq_string=RRIRGRPPRLPRPRPRPYSDPRP assayed_target="Escherichia coli TOP10" parameter_measured="shrunken log2 fold change" reading=-0.11
seq_string=RRIRPRPPRLPRPRPRPTRHPRP assayed_target="Escherichia coli TOP10" parameter_measured="shrunken log2 fold change" reading=0.43
seq_string=RRIRVRPPRLPRPRPRPQDHPRP assayed_target="Escherichia coli TOP10" parameter_measured="shrunken log2 fold change" reading=-0.253
seq_string=RRIRQRPPRLPRPRPRPDWCPRP assayed_target="Escherichia coli TOP10" parameter_measured="shrunken log2 fold change" reading=-0.229
seq_string=RRIRQRPPRLPRPRPRPTEWPRP assayed_target="Escherichia coli TOP10" parameter_measured="shrunken log2 fold change" reading=0.446
seq_string=RRIRHRPPRLPRPRPRPWFVPRP assayed_target="Escherichia coli TOP10" parameter_measured="shrunken log2 fold change" reading=-0.14

Look at each sequence and report its shrunken log2 fold change.
1. RRIRDRPPRLPRPRPRPAPEPRP
2. RRIRKRPPRLPRPRPRPQWQPRP
3. RRIRDRPPRLPRPRPRPGDAPRP
4. RRIRNRPPRLPRPRPRPSGFPRP
5. RRIRFRPPRLPRPRPRPNWLPRP
6. RRIRWRPPRLPRPRPRPQSQPRP

[0.225, 0.0827, 0.207, 0.0185, -0.0999, 0.00151]

Look at each sequence and report its shrunken log2 fold change.
1. RRIRVRPPRLPRPRPRPKGQPRP
2. RRIRSRPPRLPRPRPRPHDTPRP
3. RRIRWRPPRLPRPRPRPWNYPRP

[0.147, -0.156, -0.98]

Where do these numbers come from? They come from the supplement of paper PMC9112550.
